# System: RPMI-8226 leukemia
# method notes: NCI tumour cell line growth inhibition, 48 h
readout: TGI

Recorded results for 4 compounds are shown here.
QUERY: Which TGI value belongs to "CCNC(=S)NNC(=O)c1csc(NC(=S)NC2CCCCC2)n1" ?
RESULT: 71.6 µM

QUERY: Which measured TGI value corresponds to "COc1cc(CCCl)c(CC2=NCCc3cc(OC)c(OC)cc32)cc1OC" ?
RESULT: > 100 µM

QUERY: // TGI lookup, key: "CN(C)CCCCC1CCN(CC(=O)N2c3ccccc3NC(=O)c3ccccc32)CC1"
RESULT: > 100 µM

QUERY: Which TGI is listed for "N.N.NCCCCCCN.O=C([O-])CCl.O=C([O-])CCl.O=C([O-])CCl.O=C([O-])CCl.[Pt+4].[Pt+4]" ?
RESULT: > 50 µM

# evaluate next
QUERY: Recorded TGI for "COc1ccc(NC(=S)N/N=C/c2c(C)n(C)n(-c3ccccc3)c2=O)cc1" , please?
RESULT: > 100 µM

Where do the numbers come from? From PubChem BioAssay (NCI).
